measurement.target: human DNA topoisomerase IIα (Homo sapiens, UniProt P11388)
Construct: purchased TopoGEN, Inc
Sequence (P11388 whole entry): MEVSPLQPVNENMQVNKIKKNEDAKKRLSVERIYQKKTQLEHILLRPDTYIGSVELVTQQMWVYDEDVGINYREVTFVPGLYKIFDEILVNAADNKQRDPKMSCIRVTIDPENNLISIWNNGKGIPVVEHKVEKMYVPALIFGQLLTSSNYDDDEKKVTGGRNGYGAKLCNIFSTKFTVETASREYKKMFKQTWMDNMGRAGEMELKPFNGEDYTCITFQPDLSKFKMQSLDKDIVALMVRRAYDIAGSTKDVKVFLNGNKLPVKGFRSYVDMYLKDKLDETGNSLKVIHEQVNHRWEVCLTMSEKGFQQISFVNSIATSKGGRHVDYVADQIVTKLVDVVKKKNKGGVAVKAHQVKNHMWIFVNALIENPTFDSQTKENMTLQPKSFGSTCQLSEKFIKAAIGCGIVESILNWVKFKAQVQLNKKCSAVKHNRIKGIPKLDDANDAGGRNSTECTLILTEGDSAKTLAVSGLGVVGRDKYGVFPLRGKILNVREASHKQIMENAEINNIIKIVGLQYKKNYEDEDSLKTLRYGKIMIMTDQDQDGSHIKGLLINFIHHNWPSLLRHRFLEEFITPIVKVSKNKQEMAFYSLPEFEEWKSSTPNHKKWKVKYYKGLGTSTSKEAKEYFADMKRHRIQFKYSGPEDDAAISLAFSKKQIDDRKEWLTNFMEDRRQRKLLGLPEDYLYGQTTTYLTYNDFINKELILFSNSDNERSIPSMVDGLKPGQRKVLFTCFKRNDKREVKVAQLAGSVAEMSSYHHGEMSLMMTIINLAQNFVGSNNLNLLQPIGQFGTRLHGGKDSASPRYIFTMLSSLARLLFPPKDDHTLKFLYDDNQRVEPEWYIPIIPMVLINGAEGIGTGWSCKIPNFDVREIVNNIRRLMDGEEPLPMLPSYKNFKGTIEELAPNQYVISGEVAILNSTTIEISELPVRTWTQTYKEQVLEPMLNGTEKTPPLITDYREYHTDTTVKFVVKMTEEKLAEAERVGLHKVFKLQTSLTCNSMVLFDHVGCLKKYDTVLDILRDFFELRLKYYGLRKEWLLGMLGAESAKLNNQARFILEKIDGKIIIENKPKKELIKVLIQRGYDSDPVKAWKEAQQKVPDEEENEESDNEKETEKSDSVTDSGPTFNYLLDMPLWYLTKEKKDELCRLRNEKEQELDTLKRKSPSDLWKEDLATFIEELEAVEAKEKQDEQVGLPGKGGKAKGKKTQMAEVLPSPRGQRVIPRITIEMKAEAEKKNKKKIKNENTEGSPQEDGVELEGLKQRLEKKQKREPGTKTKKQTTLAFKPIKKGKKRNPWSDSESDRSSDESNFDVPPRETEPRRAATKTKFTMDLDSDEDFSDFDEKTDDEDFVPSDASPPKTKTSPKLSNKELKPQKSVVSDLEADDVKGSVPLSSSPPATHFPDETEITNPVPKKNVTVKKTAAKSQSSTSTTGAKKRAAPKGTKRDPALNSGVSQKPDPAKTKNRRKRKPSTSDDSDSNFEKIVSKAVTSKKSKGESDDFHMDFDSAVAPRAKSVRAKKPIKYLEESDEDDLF
protocol.summary: Human DNA topoisomerase IIα activity assay (TopoGEN kit, plasmid based)
Assay type: biochemical
reported.property: IC50 (µM)

These solved cases illustrate the format of a correct answer.
Q: # IC50 lookup, item O=C1/C(=C/c2ccc(F)cc2)CN(C(=O)Nc2ccccc2)C/C1=C\c1ccc(F)cc1
Result: 30.7

Q: # IC50 lookup, item COc1ccc(NC(=O)N2C/C(=C\c3ccc(F)cc3)C(=O)/C(=C/c3ccc(F)cc3)C2)cc1
Result: 23

Q: # IC50 lookup, item O=C1/C(=C/c2ccc(F)cc2)CN(C(=O)NCc2ccccc2)C/C1=C\c1ccc(F)cc1
Result: 35

Q: # IC50 lookup, item COc1ccc(NC(=O)N2C/C(=C\c3ccc(C)cc3)C(=O)/C(=C/c3ccc(C)cc3)C2)cc1
Result: 40.3

Q: # IC50 lookup, item O=C1/C(=C/c2ccc(F)cc2)CN(C(=O)Nc2ccc(Cl)cc2)C/C1=C\c1ccc(F)cc1
Result: 26.4

[P] O=C1/C(=C/c2ccc(Cl)cc2)CN(C(=O)Nc2ccccc2)C/C1=C\c1ccc(Cl)cc1
[Q] O=C1/C(=C/c2ccc(Cl)cc2)CN(C(=O)Nc2ccc(Cl)cc2)C/C1=C\c1ccc(Cl)cc1
Q: Pick the one with the larger IC50: P vs Q Please reply using the label of the selected record.
Result: Q

====

Tested on: A431 (squamous skin) carcinoma cell line
protocol.summary: MTT anti-proliferative assay, A431
Assay type: cell-based
test.conditions: Homo sapiens, A-431, 72 h; read-out: IC50, μM ± SD, A431
reported.property: IC50 (µM)

[A] COc1ccc(/C=C2\CN(C(=O)Nc3ccccc3)C/C(=C\c3ccc(OC)cc3)C2=O)cc1
[B] CCNC(=O)N1C/C(=C\c2ccc(OC)cc2)C(=O)/C(=C/c2ccc(OC)cc2)C1
Q: Pick the one with the larger IC50: A vs B Please reply using the label of the selected record.
Result: B

====

reported.property: melting point

These solved cases illustrate the format of a correct answer.
Q: # melting point lookup, item COc1ccc(/C=C2\CN(C(=O)NCc3ccccc3)C/C(=C\c3ccc(OC)cc3)C2=O)cc1
Result: 177 to 179 °C

Q: # melting point lookup, item Cc1ccc(/C=C2\CN(C(=O)NCc3ccccc3)C/C(=C\c3ccc(C)cc3)C2=O)cc1
Result: 166 to 168 °C

Q: # melting point lookup, item O=C1/C(=C/c2ccccc2)CN(C(=O)Nc2ccc(Cl)cc2)C/C1=C\c1ccccc1
Result: 186 to 188 °C

Q: # melting point lookup, item COc1ccc(/C=C2\CN(C(=O)Nc3ccccc3)C/C(=C\c3ccc(OC)cc3)C2=O)cc1
Result: 190 to 192 °C

Q: # melting point lookup, item CCNC(=O)N1C/C(=C\c2ccc(F)cc2)C(=O)/C(=C/c2ccc(F)cc2)C1
Result: 180 to 182 °C

Q: # melting point lookup, item O=C1/C(=C/c2ccc(Cl)cc2)CN(C(=O)Nc2ccc(Cl)cc2)C/C1=C\c1ccc(Cl)cc1
Result: 185 to 187 °C

Q: # melting point lookup, item Cc1ccc(/C=C2\CN(C(=O)Nc3ccccc3)C/C(=C\c3ccc(C)cc3)C2=O)cc1
Result: 221 to 223 °C

Field: next compound
Q: # melting point lookup, item O=C1/C(=C/c2ccc(Cl)cc2)CN(C(=O)Nc2ccccc2)C/C1=C\c1ccc(Cl)cc1
Result: 205 to 207 °C

====

Test system: RPE1 (normal human immortalized retinal pigment epithelial cell line)
protocol.summary: MTT assay on normal cells, RPE1
Format: cell-based
test.conditions: RPE-1, RPE1 normal (non-cancer) cell line, read-out: IC50, μM ± SD, RPE1
Method: In-vitro antitumor screening […] To stop the reaction and dissolve the formed crystals, 150 μl of 10% sodium dodecyl sulfate (SDS) in deionized water were added to each well and incubated overnight at 37 °C. The absorbance was then measured at 570 nm and a reference wavelength of 595 nm. Data were collected as mean values for experiments performed in triplicates for each individual dose which had been measured by MTT assay. […] survival was calculated according to equ. […]
reported.property: IC50 (µM)
Entry rule: numbers only, all in µM.

These solved cases illustrate the format of a correct answer.
Q: # IC50 lookup, item O=C1/C(=C/c2ccc(F)cc2)CN(C(=O)Nc2ccccc2)C/C1=C\c1ccc(F)cc1
Result: 17.5

Q: # IC50 lookup, item O=C1/C(=C/c2ccc(Cl)cc2)CN(C(=O)Nc2ccccc2)C/C1=C\c1ccc(Cl)cc1
Result: 9.67

Q: # IC50 lookup, item O=C1/C(=C/c2ccc(F)cc2)CN(C(=O)NCc2ccccc2)C/C1=C\c1ccc(F)cc1
Result: 10.9

---
Q: # IC50 lookup, item CCNC(=O)N1C/C(=C\c2ccc(F)cc2)C(=O)/C(=C/c2ccc(F)cc2)C1
Result: 9.78

Q: # IC50 lookup, item CCNC(=O)N1C/C(=C\c2ccc(Cl)cc2)C(=O)/C(=C/c2ccc(Cl)cc2)C1
Result: 12.1

Q: # IC50 lookup, item O=C1/C(=C/c2ccc(Cl)cc2)CN(C(=O)Nc2ccc(Cl)cc2)C/C1=C\c1ccc(Cl)cc1
Result: 4.89

====

measurement.target: human DNA topoisomerase IIα (Homo sapiens, UniProt P11388)
Construct: purchased TopoGEN, Inc
protocol.summary: Human DNA topoisomerase IIα activity assay (TopoGEN kit, plasmid based)
Format: biochemical
reported.property: IC50 (µM)

Q: # IC50 lookup, item COc1ccc(/C=C\c2cc(OC)c(OC)c(OC)c2)cc1O [Combretastatin A-4, reference compound]
Result: 22

Q: # IC50 lookup, item COc1ccc(/C=C2\CN(C(=O)Nc3ccc(OC)cc3)C/C(=C\c3ccc(OC)cc3)C2=O)cc1
Result: 39.3

Q: # IC50 lookup, item COc1ccc(/C=C2\CN(C(=O)Nc3ccccc3)C/C(=C\c3ccc(OC)cc3)C2=O)cc1
Result: 28.3

====

System: A431 (squamous skin) carcinoma cell line
protocol.summary: MTT anti-proliferative assay, A431
Type: cell-based
test.conditions: Homo sapiens, A-431, 72 h; read-out: IC50, μM ± SD, A431
reported.property: IC50 (µM)

Q: Could you share what IC50 was measured for COc1ccc(/C=C2\CN(C(=O)Nc3ccc(Cl)cc3)C/C(=C\c3ccc(OC)cc3)C2=O)cc1 , tested on A431 (squamous skin) carcinoma cell line?
Result: 2.85

Q: Could you share what IC50 was measured for O=C1/C(=C/c2ccc(F)cc2)CN(C(=O)Nc2ccc(Cl)cc2)C/C1=C\c1ccc(F)cc1 , tested on A431 (squamous skin) carcinoma cell line?
Result: 1.2

Q: Could you share what IC50 was measured for COc1ccc(NC(=O)N2C/C(=C\c3ccccc3)C(=O)/C(=C/c3ccccc3)C2)cc1 , tested on A431 (squamous skin) carcinoma cell line?
Result: 2.83

Q: Could you share what IC50 was measured for Cc1ccc(/C=C2\CN(C(=O)NCc3ccccc3)C/C(=C\c3ccc(C)cc3)C2=O)cc1 , tested on A431 (squamous skin) carcinoma cell line?
Result: 8.75

Q: Could you share what IC50 was measured for COc1ccc(NC(=O)N2C/C(=C\c3ccc(C)cc3)C(=O)/C(=C/c3ccc(C)cc3)C2)cc1 , tested on A431 (squamous skin) carcinoma cell line?
Result: 4.9

Q: Could you share what IC50 was measured for COc1ccc(/C=C2\CN(C(=O)NCc3ccccc3)C/C(=C\c3ccc(OC)cc3)C2=O)cc1 , tested on A431 (squamous skin) carcinoma cell line?
Result: 7.98

Q: Could you share what IC50 was measured for O=C1/C(=C/c2ccc(Cl)cc2)CN(C(=O)NCc2ccccc2)C/C1=C\c1ccc(Cl)cc1 , tested on A431 (squamous skin) carcinoma cell line?
Result: 1.45

Q: Could you share what IC50 was measured for O=C1/C(=C/c2ccccc2)CN(C(=O)Nc2ccccc2)C/C1=C\c1ccccc1 , tested on A431 (squamous skin) carcinoma cell line?
Result: 2.49

[1] O=C1/C(=C/c2ccccc2)CN(C(=O)Nc2ccc(Cl)cc2)C/C1=C\c1ccccc1
[2] COc1ccc(NC(=O)N2C/C(=C\c3ccc(Cl)cc3)C(=O)/C(=C/c3ccc(Cl)cc3)C2)cc1
[3] O=C1/C(=C/c2ccc(Cl)cc2)CN(C(=O)Nc2ccc(Cl)cc2)C/C1=C\c1ccc(Cl)cc1
[4] CCNC(=O)N1C/C(=C\c2cccs2)C(=O)/C(=C/c2cccs2)C1
Q: Sort (4 compounds) by IC50: min first. Please respond with the labels ordered as the question requires.
Result: 3, 2, 1, 4
(3: 0.64 µM, 2: 1.24 µM, 1: 2.51 µM, 4: 40.6 µM)

====

measurement.target: human DNA topoisomerase IIα (Homo sapiens, UniProt P11388)
Construct: purchased TopoGEN, Inc
protocol.summary: Human DNA topoisomerase IIα activity assay (TopoGEN kit, plasmid based)
Type: biochemical
reported.property: IC50 (µM)

These solved cases illustrate the format of a correct answer.
Q: # IC50 lookup, item Cc1ccc(/C=C2\CN(C(=O)Nc3ccccc3)C/C(=C\c3ccc(C)cc3)C2=O)cc1
Result: 41.3

Q: # IC50 lookup, item Cc1ccc(/C=C2\CN(C(=O)NCc3ccccc3)C/C(=C\c3ccc(C)cc3)C2=O)cc1
Result: 31.5

[I] CCNC(=O)N1C/C(=C\c2ccccc2)C(=O)/C(=C/c2ccccc2)C1
[II] CCNC(=O)N1C/C(=C\c2ccc(C)cc2)C(=O)/C(=C/c2ccc(C)cc2)C1
Q: Pick the one with the larger IC50: I vs II Please reply using the label of the selected record.
Result: II
(II: 50.2 µM, I: 33.6 µM)
